inhibition (INH) reference
Experiment: Antioxidant activity assessed as DPPH radical scavenging activity at 0.05 mM after 30 mins
Format: physicochemical
Settings: 0.5 h, 50 µM
API: value field is a number in %; no unit string.

compound | inhibition (INH) [%]
O=C(/C=C/c1ccc(O)c2c1[C@@H](C(=O)O[C@@H](Cc1ccc(O)c(O)c1)C(=O)O)[C@H](c1ccc(O)c(O)c1)O2)O[C@@H](Cc1ccc(O)c(O)c1)C(=O)O | 42.1
O=C1O[C@H]([C@@H](O)CO)C(O)=C1O | 26
O=C(/C=C/c1ccc(O)c(O)c1/C(=C/c1ccc(O)c(O)c1)C(=O)O[C@@H](Cc1ccc(O)c(O)c1)C(=O)O)O[C@@H](Cc1ccc(O)c(O)c1)C(=O)O | 4.4

Specify inhibition (INH) for O=C(/C=C/c1ccc(O)c2c1[C@@H](C(=O)O[C@H](Cc1ccc(O)c(O)c1)C(=O)O)[C@H](c1ccc(O)c(O)c1)O2)O[C@H](Cc1ccc(O)c(O)c1)C(=O)O and stop.
37.6
